Entries and their pKi
Biological target: L-type calcium channel (Cavia porcellus)
Assay: Displacement of [3H]diltiazem from L-type calcium channel of guinea pig striated muscle
pKi: −log10 of the molar value.
endpoint: pKi

{"chemicalString": "COc1ccc([C@@H]2Sc3ccccc3N(CCN(C)C)C(=O)[C@@H]2C)cc1", "targetEntity": "L-type calcium channel (Cavia porcellus)", "numericValue": 6.27}
{"chemicalString": "COc1ccc([C@@H]2Sc3cc(OC)ccc3N(CCN(C)C)C(=O)[C@@H]2OC(C)=O)cc1", "targetEntity": "L-type calcium channel (Cavia porcellus)", "numericValue": 7.38}
{"chemicalString": "COc1ccc([C@@H]2Sc3cc(OC)ccc3N(CCN(C)C)C(=O)[C@@H]2C)cc1", "targetEntity": "L-type calcium channel (Cavia porcellus)", "numericValue": 7.07}
